Taken from ChEMBL document CHEMBL1124919.

target: Aromatase (Homo sapiens)
Sequence (P11511 whole entry): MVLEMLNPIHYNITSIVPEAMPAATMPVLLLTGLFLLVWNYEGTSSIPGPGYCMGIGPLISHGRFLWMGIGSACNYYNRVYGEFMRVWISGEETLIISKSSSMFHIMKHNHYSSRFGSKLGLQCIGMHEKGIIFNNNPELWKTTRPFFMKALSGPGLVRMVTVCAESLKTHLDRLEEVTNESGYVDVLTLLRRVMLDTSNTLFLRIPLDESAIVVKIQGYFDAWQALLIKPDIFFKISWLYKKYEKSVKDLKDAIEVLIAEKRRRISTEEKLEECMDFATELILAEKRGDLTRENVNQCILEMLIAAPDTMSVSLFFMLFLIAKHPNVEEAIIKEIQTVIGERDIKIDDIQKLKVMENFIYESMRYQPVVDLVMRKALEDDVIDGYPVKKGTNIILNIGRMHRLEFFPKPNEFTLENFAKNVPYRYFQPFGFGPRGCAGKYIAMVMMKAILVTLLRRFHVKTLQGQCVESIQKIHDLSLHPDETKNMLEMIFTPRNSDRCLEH
Attribute: Ki

molecule: CC12CCC3C(C(Cc4ccc([N+](=O)[O-])cc4)=CC4=CC(=O)CCC43C)C1CCC2=O (stereo unspecified)
units-text: nM
Ki: 94
//
molecule: CC12CCC3C(C(Cc4ccc(N)cc4)=CC4=CC(=O)CCC43C)C1CCC2=O (stereo unspecified)
units-text: nM
Ki: 88
//
molecule: CC12CCC3C(C(c4ccccc4)=CC4=CC(=O)CCC43C)C1CCC2=O (stereo unspecified)
units-text: nM
Ki: 1420
//
molecule: CC12CCC3C(C(CCc4ccc([N+](=O)[O-])cc4)=CC4=CC(=O)CCC43C)C1CCC2=O (stereo unspecified)
units-text: nM
Ki: 95
//
molecule: CC12CCC3C(C(CCc4ccccc4)=CC4=CC(=O)CCC43C)C1CCC2=O (stereo unspecified)
units-text: nM
Ki: 174
//
molecule: CC12CCC3C(C(CCc4ccc(N)cc4)=CC4=CC(=O)CCC43C)C1CCC2=O (stereo unspecified)
units-text: nM
Ki: 88
